Reference source: patent US9988381B2

- tested_system: c-Met kinase domain recombinant protein (Homo sapiens)
- Construct: 50 μL diluted solution of c-Met kinase domain recombinant protein in reaction buffer was added to initiate the reaction
- method_notes: biochemical
- details: read-out: Average inhibition rate at 1 μM (%)
test_readout: inhibition at 1 µM (%)

Sample records with inhibition at 1 µM:
1. Cn1cc(-c2cnc3cnn(S(=O)(=O)c4ccc5ccccc5c4)c3c2)cn1 :: 48.8
2. Cn1cc(-c2ccc3ncc(S(=O)(=O)n4ncc5ncc(-c6cnn(C7CCN(C8CCCC8)CC7)c6)cc54)n3c2)cn1 :: 91.3
3. O=S(=O)(c1cnc2ccccn12)n1ncc2ncc(-c3ccccc3)cc21 :: 70.3

I: Cn1cc(-c2cnc3cnn(S(=O)(=O)c4cnc5ccc(-c6ccc7c(c6)OCCO7)cn45)c3c2)cn1
II: Cn1cc(-c2cnc3cnn(S(=O)(=O)c4cnc5ncccn45)c3c2)cn1
I'm curious whether I or II has the smaller inhibition at 1 µM number. Which is it? State your choice using its label.
II
(II: 52.7%, I: 76.8%)

1: CCN1CCC(n2cc(-c3cnc4cnn(S(=O)(=O)c5cnc6ccc(-c7cnn(C)c7)cn56)c4c3)cn2)CC1
2: Cn1cc(-c2cnc3cnn(S(=O)(=O)c4cnn5cccnc45)c3c2)cn1
Which value of inhibition at 1 µM is smaller, the one for 1 or the one for 2 ? Write down the label attached to your selection.
2

* * *

- tested_system: c-Met kinase domain recombinant protein (Homo sapiens, UniProt P08581)
- Construct: 50 μL diluted solution of c-Met kinase domain recombinant protein in reaction buffer was added to initiate the reaction
- Sequence (P08581 1078-1345 limits assumed): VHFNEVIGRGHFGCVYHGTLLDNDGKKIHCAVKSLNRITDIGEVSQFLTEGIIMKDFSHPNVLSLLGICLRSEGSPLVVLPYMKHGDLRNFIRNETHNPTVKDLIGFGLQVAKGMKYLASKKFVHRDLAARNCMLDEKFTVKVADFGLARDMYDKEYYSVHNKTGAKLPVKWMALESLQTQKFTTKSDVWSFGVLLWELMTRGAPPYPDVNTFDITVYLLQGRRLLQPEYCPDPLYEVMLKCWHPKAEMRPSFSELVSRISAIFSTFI
- method_notes: biochemical
- details: read-out: Average inhibition rate at 10 μM (%)
test_readout: inhibition at 10 µM (%)

1) Cc1ccc(-c2ccc3ncc(S(=O)(=O)n4ncc5ncc(-c6cnn(C)c6)cc54)n3c2)cc1F :: 89.3
2) Cc1noc(C)c1S(=O)(=O)n1ncc2ncc(-c3cnn(C)c3)cc21 :: 48.6
3) Cn1cc(-c2cnc3cnn(S(=O)(=O)c4ccc([N+](=O)[O-])cc4)c3c2)cn1 :: 22
4) CC(C)(C)OC(=O)N1CCC(n2cc(-c3cnc4cnn(S(=O)(=O)c5cnc6ccc(-c7cnn(C8CCN(C(=O)OC(C)(C)C)CC8)c7)nn56)c4c3)cn2)CC1 :: 80
5) CC(C)(C)OC(=O)N1CCC(n2cc(-c3cnc4cnn(S(=O)(=O)c5cnc6cccnn56)c4c3)cn2)CC1 :: 76.7
6) Cn1cc(-c2cnc3cnn(S(=O)(=O)c4cnc5ccc(-c6ccc(F)nc6)cn45)c3c2)cn1 :: 71.8
7) O=S(=O)(c1cnc2ccccn12)n1ncc2ncc(-c3ccoc3)cc21 :: 69

P: COc1ccc(S(=O)(=O)n2ncc3ncc(-c4cnn(C)c4)cc32)cc1
Q: O=S(=O)(c1cnc2cccnn12)n1ncc2ncc(-c3cnn(C4CCNCC4)c3)cc21
Could you check which of P and Q has a smaller value for inhibition at 10 µM? Answer format: the label of the selected item.
P

* * *

- tested_system: c-Met kinase domain recombinant protein (Homo sapiens)
- Construct: 50 μL diluted solution of c-Met kinase domain recombinant protein in reaction buffer was added to initiate the reaction
- method_notes: biochemical
- details: read-out: Average inhibition rate at 0.1 μM (%)
test_readout: inhibition at 0.1 µM (%)

1) Cc1ccc(-c2ccc3ncc(S(=O)(=O)n4ncc5ncc(-c6cnn(C)c6)cc54)n3c2)cc1F :: 64.5
2) Cn1cc(-c2cnc3cnn(S(=O)(=O)c4cnc5ccc(-c6ccc7c(c6)OCCO7)cn45)c3c2)cn1 :: 76.1
3) Cn1cc(-c2cnc3cnn(S(=O)(=O)c4cnc5ccc(-c6ccc(F)nc6)cn45)c3c2)cn1 :: 55.5
